Reported normalized growth values are given for each entry in this list.
experiment: chemical genetic growth profiling, strain panel (AID 1159580);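 note: tested at 20 µM; growth read once vehicle control cultures reached saturation at 30 °C; 1 = growth at the plate median or of vehicle wells; lower values mean less growth of the strain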; conditions: S. cerevisiae deletion strains, growth OD, locus YDL005C, strain med2, active compounds read low
Among all 5,500 compounds or so, about 2,000 (36%) were called active. Roughly 18% stayed inconclusive and do not appear here. This is one part of the list.
resultType: normalized growth

- O=C(O)c1cc(=O)c2cccc(O)c2[nH]1: 1.01
- c1ccc([C@H]2CN3CCSC3=N2)cc1: 0.976
- O=C1c2ccccc2C(=O)C1c1ccccc1: 1
- CC(NCCC(c1ccccc1)c1ccccc1)c1ccccc1 (configuration not stated): 1.03
- COc1ccc(C2C(=O)c3ccccc3C2=O)cc1: 1.02
- CC[C@@H](CO)NC(=O)[C@@H]1C=C2c3cccc4[nH]cc(c34)C[C@H]2N(C)C1: 1
- COc1cc2c(cc1OC)[C@@]13CCN4CC5=CCOC6CC(=O)N2C1[C@H]6[C@H]5C[C@H]43 (some centres not stated): 0.988
